growth inhibition: recorded values
assay-remarks: NCI Yeast Anticancer Drug Screen. Data for the bub3 strain (AID 167)
applied-conditions: S. cerevisiae bub3 mutant strain, at 5.0 µM (retest, dose inferred, filed as 0.5), active compounds read high
About 79,000 compounds went through this panel and 15% of them were active in at least one assay; those are over-represented in the sample as a whole.
# unit: % | format: bare number

molecule: Fc1cccc(NC(=S)SCc2ccc(Cl)cc2)c1
unit: %
growth inhibition: 10

molecule: CCC[CH2][Sn]([CH2]CCC)([O]C(=O)c1cccc(F)c1F)[O]C(=O)c1cccc(F)c1F
unit: %
growth inhibition: 62

molecule: CC(C)NC(=O)O/N=C1\CCC2[C@@H]3CC=C4C[C@@H](OC(=O)NC(C)C)CC[C@]4(C)C3CC[C@]12C (some centres undefined)
unit: %
growth inhibition: 83

**Query** I am curious: what growth inhibition value has been reported for "CCCCCCCCCCSC(=NCC)NCC" ?
**Result** 27

All figures here come from PubChem BioAssay (NCI).
